# viability per entry
Test: viability of HCT116 without oncogenic beta-catenin – human colon tumor cells, pilot screen (AID 823);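 further: 0% = wells killed by 20 µM Hyamine and 100% = untreated DMSO cell wells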
Details: HCT116 beta-catenin knockout viability, CellTiter-Glo, 60 h; at 10 µM; active compounds read low
Inconclusive results are not listed. Calls of active or inactive are those of the source.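 How the source made its calls: active means cell viability at or below a set limit in both duplicate runs, the limit being the all-compound median minus 4 SD (cut at about 23% in these data, passing the limit was not always enough); inconclusive means no clear call, values can overlap the other calls; inactive means the rest.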

Observe how each entry below is paired with its result.
compound=O=C(Oc1ccc2ccc(OC(=O)N3CCOCC3)cc2c1)N1CCOCC1 quantity=viability endpoint_result="92.2% (inactive)"
compound="CCCOC(=O)c1[nH]c2c(c1C)C(=O)CC(c1cc(OC)c(OC)c(OC)c1)C2 (stereo not drawn)" quantity=viability endpoint_result="48.1% (inactive)"
compound=Cc1cc(/C=N/n2cnnc2)c(C)n1-c1ccc(C(=O)O)cc1 quantity=viability endpoint_result="102% (inactive)"
compound="CC12CN3CCN(CC(C3)C1(O)CN1CCCCC1)C2 (stereo not drawn)" quantity=viability endpoint_result="88.3% (inactive)"

Consider the compound CC1(C)NC(=O)N(CC(O)COc2cccc(F)c2)C1=O (stereo not drawn) . State its measured viability.
99.9% (inactive)

Consider the compound `Cc1cccc(NC(=O)c2ccc(S(=O)(=O)N(C)C)cc2)c1` . State its measured viability.
106% (inactive)

Consider the compound `CCOC(=O)c1[nH]c(C)c(C(=O)Nc2ccc(Cl)cc2)c1C` . State its measured viability.
96.7% (inactive)

Consider the compound `Cc1cc(Nc2cccc(Cl)c2)n2ncnc2n1` . State its measured viability.
95.9% (inactive)
